# measurement.target: Integrin alpha-4/beta-1 (Homo sapiens, UniProt P05556+P13612)
# Sequence (P05556 whole entry): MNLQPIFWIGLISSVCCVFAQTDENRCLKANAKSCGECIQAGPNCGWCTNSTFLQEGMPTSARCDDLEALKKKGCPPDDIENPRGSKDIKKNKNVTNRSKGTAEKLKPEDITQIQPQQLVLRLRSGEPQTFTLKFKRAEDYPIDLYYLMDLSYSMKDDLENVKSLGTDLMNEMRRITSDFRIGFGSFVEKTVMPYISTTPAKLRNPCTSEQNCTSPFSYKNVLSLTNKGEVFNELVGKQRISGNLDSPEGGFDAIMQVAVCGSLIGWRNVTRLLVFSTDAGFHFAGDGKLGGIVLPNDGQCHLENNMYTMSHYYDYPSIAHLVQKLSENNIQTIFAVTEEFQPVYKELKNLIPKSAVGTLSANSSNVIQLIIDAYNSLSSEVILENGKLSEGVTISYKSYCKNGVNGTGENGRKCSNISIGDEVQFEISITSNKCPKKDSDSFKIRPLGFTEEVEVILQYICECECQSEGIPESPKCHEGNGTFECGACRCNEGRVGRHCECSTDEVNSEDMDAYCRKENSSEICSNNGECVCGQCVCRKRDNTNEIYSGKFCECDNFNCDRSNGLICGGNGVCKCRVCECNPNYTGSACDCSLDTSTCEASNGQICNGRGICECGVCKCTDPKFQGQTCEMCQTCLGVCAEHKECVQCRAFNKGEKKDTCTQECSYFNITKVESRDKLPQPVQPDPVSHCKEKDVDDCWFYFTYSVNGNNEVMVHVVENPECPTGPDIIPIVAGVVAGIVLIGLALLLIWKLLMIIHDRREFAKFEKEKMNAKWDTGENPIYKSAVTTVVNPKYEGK
# Sequence (P13612 whole entry): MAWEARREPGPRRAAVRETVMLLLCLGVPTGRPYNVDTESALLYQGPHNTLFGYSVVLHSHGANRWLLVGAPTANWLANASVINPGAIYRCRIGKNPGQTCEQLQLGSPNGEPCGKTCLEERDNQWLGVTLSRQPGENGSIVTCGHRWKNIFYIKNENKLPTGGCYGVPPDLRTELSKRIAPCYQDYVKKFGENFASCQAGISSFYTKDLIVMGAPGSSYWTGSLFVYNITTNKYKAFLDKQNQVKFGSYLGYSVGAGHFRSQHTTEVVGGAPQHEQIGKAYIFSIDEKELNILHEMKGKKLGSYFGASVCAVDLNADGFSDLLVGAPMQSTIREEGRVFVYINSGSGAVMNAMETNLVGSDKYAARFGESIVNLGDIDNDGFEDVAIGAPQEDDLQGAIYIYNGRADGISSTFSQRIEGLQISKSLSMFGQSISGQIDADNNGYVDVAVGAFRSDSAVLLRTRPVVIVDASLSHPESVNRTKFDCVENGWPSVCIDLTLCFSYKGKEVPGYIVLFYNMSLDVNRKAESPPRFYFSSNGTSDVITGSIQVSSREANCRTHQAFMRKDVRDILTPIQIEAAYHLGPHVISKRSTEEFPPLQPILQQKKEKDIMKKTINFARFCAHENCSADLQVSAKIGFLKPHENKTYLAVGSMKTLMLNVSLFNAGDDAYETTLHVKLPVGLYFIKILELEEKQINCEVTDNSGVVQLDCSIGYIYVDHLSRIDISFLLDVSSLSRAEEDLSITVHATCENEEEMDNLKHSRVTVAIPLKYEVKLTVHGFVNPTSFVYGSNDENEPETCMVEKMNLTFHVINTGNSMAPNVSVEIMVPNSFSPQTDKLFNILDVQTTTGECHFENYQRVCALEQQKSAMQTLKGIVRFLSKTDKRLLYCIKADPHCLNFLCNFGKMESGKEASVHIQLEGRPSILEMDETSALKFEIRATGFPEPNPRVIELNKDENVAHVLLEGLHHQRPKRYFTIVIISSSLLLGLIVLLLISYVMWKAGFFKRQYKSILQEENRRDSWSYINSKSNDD
# protocol.notes: Inhibition of fluorescently labeled alpha4-beta1 positive Ramos cells binding to immobilized VCAM-1.
# Format: cell-based
Where a SMILES comes first, the peptide text is derived from it. Bridges are numbered along the chain shown (N, C = ends). [ ]: non-standard residue; d: D form. Phg = N[C@H](C(=O)O)c1ccccc1; 4Amb = NCc1ccc(C(=O)O)cc1; 4Abz = Nc1ccc(C(=O)O)cc1
IC50 values by entry
Give the value in µM but do not write µM after it.

{"compound": "CC(=O)N[C@@H](Cc1ccc(O)cc1)C(=O)N[C@H]1CSSC[C@@H](C(=O)O)NC(=O)[C@H](c2ccccc2)NC(=O)[C@H](C)NC1=O (Ac-YCA[Phg]C-OH; disulfide 2-5)", "IC50, µM": 33}
{"compound": "N[C@@H](Cc1ccc(O)cc1)C(=O)N[C@H]1CSSC[C@@H](C(=O)O)NC(=O)c2ccc(cc2)NC1=O (H-YC[4Abz]C-OH; disulfide 2-4)", "IC50, µM": 4.2}
{"compound": "N[C@@H](Cc1ccc(O)cc1)C(=O)N[C@H]1CSSC[C@@H](C(=O)O)NC(=O)c2ccc(cc2)CNC1=O (H-YC[4Amb]C-OH; disulfide 2-4)", "IC50, µM": 15}

## Input Which IC50 is listed for CC1CNC(=O)[C@@H](NC(=O)[C@@H](N)Cc2ccc(O)cc2)CSSC[C@@H](C(=O)O)NC1=O (some centres undefined) ?
## Output 2.7

## Input Returns the measured IC50 for the input compound. Input: NC(N)=NCCC[C@H](NC(=O)[C@@H](N)Cc1ccccc1)C(=O)N[C@H]1CSSC[C@@H](C(=O)O)NC(=O)[C@@H]2CCCN2C(=O)[C@H](CC(=O)O)NC1=O (H-FRCDPC-OH; disulfide 3-6)
## Output 100

## Input Query: IC50; subject: C[C@@H]1NC(=O)[C@@H](NC(=O)[C@@H](N)Cc2ccc(O)cc2)CSSC[C@@H](C(=O)O)NC(=O)[C@@H]2CCCN2C1=O (H-YCAPC-OH; disulfide 2-5)
## Output 0.12
